Where do these numbers come from? They come from PubChem BioAssay (NCI).

# maps each entry to its growth
system: 786-0 renal; experiment: NCI-60 one-dose screen, 48 h (100 = growth as untreated, 0 = no growth, -100 = all killed); settings: 10 µM unless noted
About 83,000 compounds went through this panel and 20% of them were active in at least one assay; those are over-represented in the sample as a whole.
Please give a number only; it is taken to be in %.

Recorded growth, per entry:
COMPOUND | UNIT_NAME | growth
CN1CCN(C(=O)COc2ccc(/C=C3\CC4C5CC=C6CC(Cl)CCC6(C)C5CCC4(C)C3=O)cc2)CC1 (configuration not stated) | % | 70.2
NC(=O)C(Cl)Cl | % | 107
c1ccc([As]=[As]c2ccccc2)cc1 (configuration not stated) | % | -90.4
Cc1cccc(N=C2c3cc([N+](=O)[O-])ccc3-c3c2cc([N+](=O)[O-])cc3[N+](=O)[O-])c1 | % | 60
CNC(=O)Oc1ccccc1 | % | 104
O=C1NC2(CCNCC2)Nc2ccccc21 | % | 107
CCC(/C=C(C)/C=C/C(=O)c1c(O)c(-c2ccc(O)cc2)c[nH]c1=O)CO (configuration not stated) | % | 87.6
CCN(CC)CCOc1c(C(C)C)cccc1C(C)C | % | 99.6
COc1ccc2c(c1)NC1=C(C(=O)OC1)C2c1cc(OC)c(OC)c(OC)c1 (configuration not stated) | % | 18.8
O=S(=O)(c1ccc(Cl)cc1)C(Cl)(Cl)Cl | % | 51.8

growth reported for this compound COc1ccc(NP2(=O)OCC(C)(N)CO2)cc1 (configuration not stated) : 101

Looking up Clc1ccc(SSC(Cl)(Cl)Cl)cc1 , I see its growth listed as 106

* * *

system: NCI-H23 lung; test: NCI-60 one-dose screen, 48 h; conditions: 10 µM unless noted
Compounds without any hit were thinned out: in the full panel of roughly 83,000, 20% have a hit. The source made the active and inactive calls. The calls were made as follows: active = growth percent below 10; inactive = the rest.
The reply should name one outcome from active, inactive

Record excerpt, results attached:
COMPOUND | CLASS_ASSIGNMENT
CC1(C)N=C(N)N=C(N)N1c1ccc(CCC(=O)Nc2cccc(S(=O)(=O)F)c2)cc1 | inactive
CC12CCC(=O)C=C1C(O)CC1C2CCC2(C)C(O)CCC12 (stereo not given) | inactive
Cc1cccc(N(C)c2cccc3c2C(=O)[Se]C3)c1C | inactive
CSc1ccccc1NP1(=O)OCC(C)([N+](=O)[O-])CO1 (stereo not given) | inactive
ClCCN(CCCl)c1ccc(/C=C\c2ccnc3ccccc23)cc1 | inactive
O=C(O)c1nn(Cc2ccc(Cl)cc2)c2ccccc12 | inactive

Given NCCc1cc(O)c(O)cc1O , state the outcome it received in this test. inactive

Could you please tell me the result logged for O=C1C=CC(=O)C2C1C1(Cl)C(Cl)=C(Cl)C2(Cl)C1(Cl)Cl (stereo not given) in this assay? inactive

I'd appreciate the recorded outcome for CC(=O)Oc1ccc(Cl)cc1 from this test. inactive

// param item: O=S(=O)(F)c1ncnc2nc[nH]c12 ; yields the recorded call inactive

Identify the outcome logged in this assay for the compound shown: OC1(c2ccccc2F)c2ccccc2C2=NCCN21 (stereo not given) inactive

Would you mind telling me which call this test gave CC(=O)[O][Hg][c]1ccccc1 ? active

What was the test verdict on COc1cc(C2CC(=O)Nc3nc(N)[se]c32)c(OC)c2c1OCO2 (stereo not given) ? inactive

How did this test come out for CC(/C=N/N=C(N)N)=N/N=C(N)N ? inactive

Kindly provide the recorded test outcome for the following compound: COC(=O)C[Se]C(=O)c1ccccc1OC(C)=O inactive

Hey, what did the test say about CC[C@@]1(C2O[C@@H](C3O[C@@](O)(CC)[C@H](C)C[C@@H]3C)C[C@@H]2C)CC[C@H]([C@]2(C)CCC3(C[C@H](O)[C@@H](C)[C@@H]([C@H](C)[C@@H](OC)[C@H](C)C(=O)O)O3)O2)O1 (stereo not given in full) ? inactive

* * *

test system: HL-60(TB) leukemia; experiment: NCI-60 one-dose screen, 48 h; conditions: 10 µM unless noted
About 83,000 compounds went through this panel and 20% of them were active in at least one assay; those are over-represented in the sample as a whole. Calls of active or inactive are those of the source. Rule for the calls: active = growth percent below 10; inactive = the rest.
A correct response names exactly one class from active, inactive

COMPOUND | ASSAYED_SYSTEM | CLASS_ASSIGNMENT
CC(C)C[C@H](NC(=O)Cn1cccc(CNC(=O)c2ccccc2)c1=O)B(O)O | HL-60(TB) leukemia | active
CCOC(=O)C1=C(C)N=c2s/c(=C\c3ccccc3O)c(=O)n2C1c1ccc(OC)c2ccccc12 (centres undefined) | HL-60(TB) leukemia | active
CCOC(=O)C(NC(=O)C(Cl)Cl)C(O)c1ccccc1 (centres undefined) | HL-60(TB) leukemia | inactive
O=c1[nH]c2cc(Cl)ccc2n1C1CCN(CCCC(c2ccc(F)cc2)c2ccc(F)cc2)CC1 | HL-60(TB) leukemia | active
CC(=O)Nc1cccc(C2=CC(c3ccc(C)cc3)n3ncnc3N2)c1 (centres undefined) | HL-60(TB) leukemia | inactive
C#C[C@@]1(O)[C@@H](CO)O[C@@H](n2cc(Br)c3c(N)ncnc32)[C@@H]1O | HL-60(TB) leukemia | active
C#CCOc1ccc2ncnc(N3CCN(C(=O)CCl)CC3)c2c1 | HL-60(TB) leukemia | inactive
C=C(C)[C@@H]1CC[C@]2(C(N)=O)CC[C@]3(C)[C@H](CC[C@@H]4[C@@]5(C)C/C(=C/c6ccco6)C(=O)C(C)(C)[C@@H]5CC[C@]43C)[C@@H]12 | HL-60(TB) leukemia | inactive

We next turn to a different compound, shown below.
For this compound, state the assay outcome: COc1ccc2c(c1)nc(N)c1c3cc(OC)c(OC)cc3cn21 inactive

* * *

tested on: HL-60(TB) leukemia; experiment: NCI-60 one-dose screen, 48 h; settings: 10 µM unless noted
This is part of a sample that, as a whole, favours compounds with a hit. Of some 83,000 tested, about 20% had one in any assay. Activity calls are given as the source filed them. Rule for the calls: active = growth percent below 10; inactive = the rest.
Respond with a class label; see active, inactive

Consider the worked cases shown below.
MOLECULE | CLASS_ASSIGNMENT
COc1ccc(Cl)cc1NC(=O)c1c(NC(=O)C(F)(F)C(F)(F)F)sc2c1CCCCC2 | inactive
COc1ccc2nc(Cl)c(/C=C3\CC(c4ccccc4)=NN(c4ccccc4)C3=O)cc2c1 | inactive
COc1ccc(C(=O)/C=C/C23c4ccccc4C(c4ccccc42)C2C(=O)NC(=O)C23)cc1 (stereo not given) | inactive
CCN(CCO)CC(=O)c1cc(Cl)cc(Cl)c1Cl | inactive
COc1ccc(-c2cn3c(C(=O)Nc4ccccc4Cl)c(-c4ccccc4)c4c3n2CCCC4)cc1 | inactive

Assay result, entry COc1ccc2c(c1)O/C(=C\c1ccc([N+](=O)[O-])o1)C2=O — outcome? active

Recorded call for N[C@H]1CCC[C@@H]1NCCCCN1C(=O)c2cccc3cc([N+](=O)[O-])cc(c23)C1=O ? inactive

Hello, I am checking results. What call was entered for O=C(CCc1nnc2sc(-c3ccccc3)nn12)c1nc2ccccc2[nH]1 ? inactive

Called result for CCN1CCN(c2ccc(Nc3ncnc4c3nnn4CCc3cc(OC)cc(OC)c3)cc2)CC1 inactive

Hello, I am checking results. What call was entered for N#Cc1ccccc1-c1ccc(Cn2c(-c3cscn3)nc3c(Cl)cccc32)cc1 ? inactive

* * *

test system: HL-60(TB) leukemia; assay: NCI-60 one-dose screen, 48 h (100 = growth as untreated, 0 = no growth, -100 = all killed); settings: 10 µM unless noted
Compounds without any hit were thinned out: in the full panel of roughly 83,000, 20% have a hit.
Each record is given TRUE if its reported growth is strictly below 70%. Records at or above 70% are given FALSE.

// known answers, use as guide
COMPOUND | ASSAYED_SYSTEM | CLASS_ASSIGNMENT
Oc1c(-c2cc(C(F)(F)F)[nH]n2)cc(Cl)c(OCc2ccc(Cl)cc2)c1-c1ccc(Cl)c(C(F)(F)F)c1 | HL-60(TB) leukemia | TRUE
Cn1ccnc1C(=O)/C=C/c1ccc(C(=O)Nc2ccc(F)cc2)cc1 | HL-60(TB) leukemia | TRUE
COc1ccc2c(c1)O/C(=C\c1ccc([N+](=O)[O-])s1)C2=O | HL-60(TB) leukemia | TRUE
C=CC(=O)OC1CCC(C(C)(C)CC)CC1 (stereo not given) | HL-60(TB) leukemia | FALSE
CCOC(=O)CSc1nc2sc3c(c2c(=O)n1-c1ccc([N+](=O)[O-])cc1)CCCCC3 | HL-60(TB) leukemia | FALSE

Just wondering, is growth of CC/C=C\CCC/C=C1/C(=O)C=C[C@@H]1C/C=C\CCCC(=O)OC below 70%? TRUE

Lab note: confirm whether the reported growth for this compound is below 70%, equality not counting. compound: Nc1ccccc1C#C/C=C\C#Cc1cccc(O)c1 TRUE

Problem: For the compound CCN(CC)C(=S)SSC(=S)N(CC)CC , is growth under 70%? FALSE

Find out if reported growth for COc1ccc(-c2n/c(=C\c3c(O)[nH]c4ccccc34)cc3c2=Nc2ccccc2-3)cc1 is less than 70% TRUE
